# System: Caspase 3
# TEST METHOD NOTES: Caspase 3 detection assay in SJSA1 cells
# Assay type: cell-based
# CONDITION: 30 μM, SJSA1, 48 h, Caspase 3 activation over DMSO-treated cells
Bridge positions count the residues as written; N and C are the ends. Square brackets hold non-standard residues; d marks the D form. Peptide text beside a SMILES is read from it. R8 = C=CCCCCCC[C@@](C)(N)C(=O)O; S5 = C=CCCC[C@](C)(N)C(=O)O
Below is a list of entries, each paired with its recorded caspase 30 μM value.
Give the figure only, with no unit attached.

COMPOUND	caspase 30 μM
CC(=O)N[C@@H](CC(C)C)C(=O)N[C@H](C(=O)N[C@@H](Cc1ccccc1)C(=O)N[C@]1(C)CCCCCCC=CCCC[C@@](C)(C(=O)N[C@@H](CO)C(=O)N[C@H](C(=O)NCC(N)=O)C(C)C)NC(=O)[C@H](CC(C)C)NC(=O)[C@H](CCC(N)=O)NC(=O)[C@H](C)NC(=O)[C@H](Cc2c[nH]c3ccccc23)NC(=O)[C@H](Cc2ccc(O)cc2)NC(=O)[C@H](C)NC1=O)[C@@H](C)O [compound 123] (Ac-LTF[R8]AYWAQL[S5]SVG-NH2; staple 4-11)	14
CC(=O)N[C@@H](CC(C)C)C(=O)N[C@H](C(=O)N[C@@H](Cc1ccccc1)C(=O)N[C@]1(C)CCCCCCC=CCCC[C@@](C)(C(=O)N[C@@H](CO)C(=O)N[C@@H](C)C(=O)N[C@@H](CC(C)C)C(N)=O)NC(=O)[C@H](CC(C)C)NC(=O)[C@H](CCC(N)=O)NC(=O)[C@H](C)NC(=O)[C@H](Cc2c[nH]c3ccccc23)NC(=O)[C@H](Cc2ccc(O)cc2)NC(=O)[C@H](C)NC1=O)[C@@H](C)O [compound 4] (Ac-LTF[R8]AYWAQL[S5]SAL-NH2; staple 4-11)	35
CC(=O)N[C@@H](CC(C)C)C(=O)N[C@H](C(=O)N[C@@H](Cc1ccccc1)C(=O)N[C@]1(C)CCCCCCC=CCCC[C@@](C)(C(=O)N[C@@H](CO)C(=O)N[C@@H](C)C(=O)N[C@@H](Cc2ccccc2)C(N)=O)NC(=O)[C@H](CC(C)C)NC(=O)[C@H](CCC(N)=O)NC(=O)[C@H](C)NC(=O)[C@H](Cc2c[nH]c3ccccc23)NC(=O)[C@H](Cc2ccc(O)cc2)NC(=O)[C@H](C)NC1=O)[C@@H](C)O [compound 7] (Ac-LTF[R8]AYWAQL[S5]SAF-NH2; staple 4-11)	23.96
CC(=O)N[C@@H](CC(C)C)C(=O)N[C@H](C(=O)N[C@@H](Cc1ccccc1)C(=O)N[C@]1(C)CCCCCCC=CCCC[C@@](C)(C(=O)N[C@@H](CO)C(=O)N[C@@H](C)C(=O)N[C@@H](CO)C(N)=O)NC(=O)[C@H](CC(C)C)NC(=O)[C@H](CCC(N)=O)NC(=O)[C@H](C)NC(=O)[C@H](Cc2c[nH]c3ccccc23)NC(=O)[C@H](Cc2ccc(O)cc2)NC(=O)[C@H](C(C)C)NC1=O)[C@@H](C)O (single isomer, unassigned) [compound 144]	16

Alright, here's another compound for you.
If you can, please state the reported caspase 30 μM value of CC(=O)N[C@@H](CCC(=O)O)C(=O)N[C@H](C(=O)N[C@@H](Cc1ccccc1)C(=O)N[C@]1(C)CCCCCCC=CCCC[C@@](C)(C(=O)N[C@@H](CO)C(=O)N[C@@H](C)C(=O)N[C@@H](C)C(N)=O)NC(=O)[C@H](CC(C)C)NC(=O)[C@H](CCC(N)=O)NC(=O)[C@H](C)NC(=O)[C@H](Cc2c[nH]c3ccccc23)NC(=O)[C@H](Cc2ccc(O)cc2)NC(=O)[C@H](C(C)C)NC1=O)[C@@H](C)O [compound 125] (Ac-ETF[R8]VYWAQL[S5]SAA-NH2; staple 4-11) .
29

Source listed as patent US20200369728A1.
